Molecular target: 5-lipoxygenase (Cavia porcellus, UniProt A0A286X958)
Construct: A-23187-stimulated guinea pig polymorphonuclear leukocytes; endogenous in cells
Sequence (A0A286X958 1-674): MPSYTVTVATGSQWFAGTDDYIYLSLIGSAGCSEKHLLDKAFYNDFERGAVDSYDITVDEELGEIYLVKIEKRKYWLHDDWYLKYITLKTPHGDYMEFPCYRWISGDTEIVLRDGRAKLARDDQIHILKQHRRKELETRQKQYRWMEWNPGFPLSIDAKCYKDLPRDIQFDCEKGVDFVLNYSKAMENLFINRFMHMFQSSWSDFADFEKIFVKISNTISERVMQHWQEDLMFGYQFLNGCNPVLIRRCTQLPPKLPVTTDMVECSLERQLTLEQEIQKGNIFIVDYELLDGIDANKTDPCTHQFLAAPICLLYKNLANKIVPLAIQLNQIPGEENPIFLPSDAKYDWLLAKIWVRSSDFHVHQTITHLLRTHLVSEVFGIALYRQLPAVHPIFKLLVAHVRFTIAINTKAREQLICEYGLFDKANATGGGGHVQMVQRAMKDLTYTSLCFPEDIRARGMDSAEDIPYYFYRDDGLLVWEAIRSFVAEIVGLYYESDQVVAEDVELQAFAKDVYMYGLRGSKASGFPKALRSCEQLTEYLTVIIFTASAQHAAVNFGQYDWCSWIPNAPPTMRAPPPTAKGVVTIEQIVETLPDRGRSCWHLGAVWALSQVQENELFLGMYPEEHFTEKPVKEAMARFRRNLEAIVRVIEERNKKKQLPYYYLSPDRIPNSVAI
Assay: Inhibition of 5-HETE and LTB4 synthesis in A-23187-stimulated guinea pig polymorphonuclear leukocytes
Details: read-out: IC50 for inhibition of the formation of 5-HETE and leukotriene B4 (LTB4)
Source text: […]
pIC50: −log10 of the molar value.
PARAMETER_MEASURED: pIC50

In [3]: df
Out[3]:
                                   molecule                         target_under_test  parameter_measured  data_value
0  NC(=O)N(O)CC1=Cc2cc(Oc3ccccc3)ccc2OC1 [2(d)]  5-lipoxygenase (Cavia porcellus, UniProt A0A286X958)               pIC50       ~7.30
